# experimental target: Peroxisome proliferator-activated receptor alpha (Homo sapiens)
# assay explanation: Agonist activity against human Peroxisome proliferator activated receptor alpha receptor in CV-1 cell was determined
# Type: functional, cell-based
Please respond with reported EC50 for every item in the list.
# include the unit after the value

Recorded EC50, per entry:
compound | experimental target | test result
CC(C)OC(Cc1ccc(OCc2noc(-c3ccc(C(C)(C)C)cc3)n2)cc1)C(=O)O (stereo unspecified) | Peroxisome proliferator-activated receptor alpha (Homo sapiens) | 40 nM
CC(C)OC(Cc1ccc(OCc2noc(C3CCCCC3)n2)cc1)C(=O)O (stereo unspecified) | Peroxisome proliferator-activated receptor alpha (Homo sapiens) | 240 nM
Cc1ccc(-c2nc(COc3ccc(CC(OC(C)C)C(=O)O)cc3)no2)cc1 (stereo unspecified) | Peroxisome proliferator-activated receptor alpha (Homo sapiens) | 25 nM

Please state, for each entry, its recorded EC50.
1. CC(C)OC(Cc1ccc(OCc2noc(-c3ccc(F)cc3)n2)cc1)C(=O)O (stereo unspecified)
2. CC(C)OC(Cc1ccc(OCc2noc(-c3cccc(F)c3)n2)cc1)C(=O)O (stereo unspecified)
3. CC(C)OC(Cc1ccc(OCc2noc(-c3ccccc3)n2)cc1)C(=O)O (stereo unspecified)
4. CC(C)OC(Cc1ccc(OCCc2noc(-c3cccc(C(F)(F)F)c3)n2)cc1)C(=O)O (stereo unspecified)
5. CC(C)OC(Cc1ccc(OCc2noc(-c3cc(F)cc(F)c3)n2)cc1)C(=O)O (stereo unspecified)
6. Cc1ccccc1-c1nc(COc2ccc(CC(OC(C)C)C(=O)O)cc2)no1 (stereo unspecified)
7. CC(C)OC(Cc1ccc(OCc2noc(-c3ccc(C(C)C)cc3)n2)cc1)C(=O)O (stereo unspecified)

OUTPUT:
1: 160 nM; 2: 79 nM; 3: 160 nM; 4: 200 nM; 5: 40 nM; 6: 40 nM; 7: 13 nM

Go through the list and state EC50 for each entry.
1. CC(C)OC(Cc1ccc(OCCc2noc(-c3cccc(F)c3)n2)cc1)C(=O)O (stereo unspecified)
2. Cc1cccc(-c2nc(COc3ccc(CC(OC(C)C)C(=O)O)cc3)no2)c1 (stereo unspecified)
3. CC(C)OC(Cc1ccc(OCc2noc(-c3ccc(C(F)(F)F)cc3)n2)cc1)C(=O)O (stereo unspecified)
4. CC(C)OC(Cc1ccc(OCc2noc(-c3cc(C(F)(F)F)cc(C(F)(F)F)c3)n2)cc1)C(=O)O (stereo unspecified)
5. CC(C)OC(Cc1ccc(OCc2noc(-c3ccc(Br)cc3)n2)cc1)C(=O)O (stereo unspecified)
6. CC(C)OC(Cc1ccc(OCCc2noc(-c3ccc(F)cc3)n2)cc1)C(=O)O (stereo unspecified)

OUTPUT:
1: 500 nM; 2: 79 nM; 3: 32 nM; 4: 6 nM; 5: 40 nM; 6: 790 nM

Items follow; give EC50 for each.
1. CC(C)OC(Cc1ccc(OCCc2noc(-c3cccc(Cl)c3)n2)cc1)C(=O)O (stereo unspecified)
2. CC(C)OC(Cc1ccc(OCCc2noc(-c3ccccc3)n2)cc1)C(=O)O (stereo unspecified)
3. CC(C)OC(Cc1ccc(OCCc2noc(-c3ccc(Cl)cc3)n2)cc1)C(=O)O (stereo unspecified)
4. CC(C)OC(Cc1ccc(OCc2noc(-c3ccc(OC(F)(F)F)cc3)n2)cc1)C(=O)O (stereo unspecified)
5. CC(C)OC(Cc1ccc(OCc2noc(-c3ccc(Cl)cc3)n2)cc1)C(=O)O (stereo unspecified)

OUTPUT:
1. 320 nM
2. 2000 nM
3. 400 nM
4. 20 nM
5. 13 nM

* * *

# experimental target: Peroxisome proliferator-activated receptor gamma (Homo sapiens)
# assay explanation: Agonist activity against human peroxisome proliferator activated receptor gamma was determined
# Assay type: functional
measurement kind: EC50
Write down the value, and be sure its unit follows.

INPUT: Can you share its EC50? I mean this compound: CC(C)OC(Cc1ccc(OCCc2noc(-c3cc(C(F)(F)F)cc(C(F)(F)F)c3)n2)cc1)C(=O)O (stereo unspecified)
OUTPUT: 4 nM

* * *

# experimental target: Peroxisome proliferator-activated receptor gamma (Homo sapiens)
# Sequence (P37231 whole entry): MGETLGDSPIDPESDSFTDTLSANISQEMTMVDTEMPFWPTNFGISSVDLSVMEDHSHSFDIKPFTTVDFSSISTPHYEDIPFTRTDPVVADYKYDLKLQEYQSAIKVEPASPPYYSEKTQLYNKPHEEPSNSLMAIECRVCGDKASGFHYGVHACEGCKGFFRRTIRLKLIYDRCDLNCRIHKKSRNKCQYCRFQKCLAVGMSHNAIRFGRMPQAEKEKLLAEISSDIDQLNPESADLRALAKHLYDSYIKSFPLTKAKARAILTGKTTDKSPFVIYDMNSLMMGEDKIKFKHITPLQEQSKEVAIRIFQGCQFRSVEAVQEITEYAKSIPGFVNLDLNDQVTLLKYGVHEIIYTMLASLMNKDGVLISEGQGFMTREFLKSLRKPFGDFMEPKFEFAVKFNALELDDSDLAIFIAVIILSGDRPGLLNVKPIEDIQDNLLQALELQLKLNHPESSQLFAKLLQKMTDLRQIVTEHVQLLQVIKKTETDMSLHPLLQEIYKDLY
# assay explanation: Agonist activity against human Peroxisome proliferator activated receptor gamma receptor in CV-1 cell was determined
# Type: functional, cell-based
pEC50: −log10 of the molar value.
Yes means recorded pEC50 is 8 or above; No means it is below 8.

INPUT: Is pEC50 for CC(C)OC(Cc1ccc(OCc2noc(-c3ccc(C(C)C)cc3)n2)cc1)C(=O)O (stereo not given) at or above 8?
OUTPUT: Yes

INPUT: Does pEC50 meet or surpass 8 for CC(C)OC(Cc1ccc(OCc2noc(C3CCCCC3)n2)cc1)C(=O)O (stereo not given) ?
OUTPUT: No

INPUT: Decide: is the reported value of pEC50 for CC(C)OC(Cc1ccc(OCc2noc(-c3ccc(Cl)cc3)n2)cc1)C(=O)O (stereo not given) equal to or greater than 8?
OUTPUT: No

INPUT: Textbook exercise: given the entry Cc1cccc(-c2nc(COc3ccc(CC(OC(C)C)C(=O)O)cc3)no2)c1 (stereo not given) , state whether its pEC50 is greater than or equal to 8.
OUTPUT: No

* * *

# experimental target: Peroxisome proliferator-activated receptor gamma (Homo sapiens)
# assay explanation: Agonist activity against human Peroxisome proliferator activated receptor gamma receptor in CV-1 cell was determined
# Type: functional, cell-based
Please go through the items and note down their EC50.
Entry format: amount then unit.

Solved cases below.
compound | EC50
CC(C)OC(Cc1ccc(OCc2noc(-c3cccc(F)c3)n2)cc1)C(=O)O (stereo not given) | 0.1 µM
CC(C)OC(Cc1ccc(OCc2noc(-c3ccc(C(F)(F)F)cc3)n2)cc1)C(=O)O (stereo not given) | 0.025 µM
CC(C)OC(Cc1ccc(OCc2noc(-c3ccc(OC(F)(F)F)cc3)n2)cc1)C(=O)O (stereo not given) | 0.063 µM
CC(C)OC(Cc1ccc(OCCc2noc(-c3ccc(F)cc3)n2)cc1)C(=O)O (stereo not given) | 0.04 µM

Note: attention shifts to another entry.
INPUT: GET /values?readout=EC50&item= CC(C)OC(Cc1ccc(OCc2noc(-c3ccc(Br)cc3)n2)cc1)C(=O)O (stereo not given)
OUTPUT: 0.032 µM

* * *

Kindly state pEC50 for each of the entries shown.
# experimental target: Peroxisome proliferator-activated receptor alpha (Homo sapiens, UniProt Q07869)
# Sequence (Q07869 whole entry): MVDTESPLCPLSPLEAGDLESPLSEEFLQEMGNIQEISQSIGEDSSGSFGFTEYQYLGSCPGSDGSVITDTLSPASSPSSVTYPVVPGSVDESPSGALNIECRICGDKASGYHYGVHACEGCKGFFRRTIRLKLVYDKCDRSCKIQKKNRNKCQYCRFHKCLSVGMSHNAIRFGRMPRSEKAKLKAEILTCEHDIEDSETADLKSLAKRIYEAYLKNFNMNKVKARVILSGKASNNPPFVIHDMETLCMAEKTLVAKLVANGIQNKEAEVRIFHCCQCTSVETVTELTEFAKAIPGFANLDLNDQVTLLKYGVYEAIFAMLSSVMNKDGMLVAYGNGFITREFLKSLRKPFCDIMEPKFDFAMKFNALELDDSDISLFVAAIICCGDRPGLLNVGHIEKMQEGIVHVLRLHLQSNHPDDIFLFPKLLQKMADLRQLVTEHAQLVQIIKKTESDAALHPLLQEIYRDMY
# assay explanation: Agonist activity against human Peroxisome proliferator activated receptor alpha in CV-1 cell was determined
# Assay type: functional, cell-based
One number for each entry, as −log10 of the molar value.

compound | experimental target | test result
CC(C)OC(Cc1ccc(OCc2noc(-c3cc(C(F)(F)F)cc(C(F)(F)F)c3)n2)cc1)C(=O)O (stereo in doubt; (+)1n) | Peroxisome proliferator-activated receptor alpha (Homo sapiens, UniProt Q07869) | 5.60
CC(C)OC(Cc1ccc(OCc2noc(-c3cc(C(F)(F)F)cc(C(F)(F)F)c3)n2)cc1)C(=O)O (stereo in doubt; -1n) | Peroxisome proliferator-activated receptor alpha (Homo sapiens, UniProt Q07869) | 8.40

Now for another entry.
INPUT: Which pEC50 reading was recorded for the compound CC(C)OC(Cc1ccc(OCCc2noc(-c3ccccc3C(F)(F)F)n2)cc1)C(=O)O (stereo not drawn) ?
OUTPUT: 6.40
